// data source = the RNAGym collection of RNA variant scans (doi:10.1093/molbev/msab373)

B1: Azoarcus group I ribozyme (parent)
chain: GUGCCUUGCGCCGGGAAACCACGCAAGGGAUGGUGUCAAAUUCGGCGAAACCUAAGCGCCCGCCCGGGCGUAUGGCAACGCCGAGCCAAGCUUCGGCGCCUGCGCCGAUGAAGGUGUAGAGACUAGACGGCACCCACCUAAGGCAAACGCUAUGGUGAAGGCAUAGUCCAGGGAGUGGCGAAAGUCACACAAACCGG

Variants of: B1
Assay: reverse-splicing fitness (ratio to wild type); higher = more active; in vitro selection; Mg2+ level not given
Consider the following variants; for each one, report its reverse-splicing fitness.
Answer with a bare number; do not write a unit.

Exercise: Quick one: give measured reverse-splicing fitness for A111U A145G C169A
Key: 0.0306

Exercise: Output reverse-splicing fitness of C82U A120G A145U C150A C169U
Key: 0.0072

Exercise: Report reverse-splicing fitness, nothing else, for this variant: C82U A111G A145G C150G U176G
Key: 0.00618

Exercise: Give the reported reverse-splicing fitness for this variant. C82A A111U A120U A145U C150A C169G
Key: 0.00274

Exercise: Indicate its recorded reverse-splicing fitness; the variant in question is C82U A120C C150A C169U U176G
Key: 0.00498

Exercise: For the variant C150U C169A , give its reported reverse-splicing fitness.
Key: 0.0973

Exercise: Determine from records and report reverse-splicing fitness for C82U A111G A120C C150U U176C
Key: 0.0218

Exercise: Could you please provide reported reverse-splicing fitness for A120C A145G C150U C169G U176G ? Thanks!
Key: 0.004

Exercise: Tell me its reverse-splicing fitness given C82U A111G A145U C169G U176G as the entry.
Key: 0.00474

Exercise: Report measured reverse-splicing fitness; entry is C82A A111G A120U C150A C169G U176G
Key: 0.00222

Exercise: Give a short answer stating reported reverse-splicing fitness for C82U A111U C150U C169A .
Key: 0.00856

Exercise: Return reverse-splicing fitness for the following variant: A111U A145C C150U C169U U176C
Key: 0.0152

Exercise: Give me measured reverse-splicing fitness, please, for this variant: C82G A111C A120G A145G C150G C169U
Key: 0.00859

Exercise: Return reverse-splicing fitness (reported value) for this variant: C82A A120C A145U C150A C169G U176A
Key: 0.0165

Exercise: Specify measured reverse-splicing fitness for C82U A111G A120G A145C C150A C169U U176A .
Key: 0.0192

Exercise: Give recorded reverse-splicing fitness. C82U A120U A145C C150G C169A U176C
Key: 0.00196

Exercise: Please indicate reverse-splicing fitness recorded for C82U A111U A120C A145G C150A C169G U176C
Key: 0.0229

Exercise: Determine its reported reverse-splicing fitness: C82G A111U C169A U176G
Key: 0.00627

Exercise: Specify reverse-splicing fitness for C82G A111U A120G C150G U176A and stop.
Key: 0.00658

Exercise: For the variant C82G A111U A120G C150A U176G , give its reported reverse-splicing fitness.
Key: 0.0103

Exercise: Fill in reported reverse-splicing fitness for this entry: A111U A145G C150A C169U U176C
Key: 0.0191

Exercise: For the variant C82U A111C A120U A145U C150G C169A U176A , report reverse-splicing fitness.
Key: 0.00336

Exercise: Provide reverse-splicing fitness value for the following variant: A111C A120G A145G C150U C169U
Key: 0.139

Exercise: Supply reverse-splicing fitness value. Item: C82A A111U A120G A145U C169U U176C
Key: 0.0159

Exercise: Hello, please tell me recorded reverse-splicing fitness for this one: C82A A120C A145U C150U C169U U176G
Key: 0.00474

Exercise: Query reverse-splicing fitness for C82A A111C A120U A145G C150A C169G U176A
Key: 0.00687

Exercise: Please give measured reverse-splicing fitness of the following entry: C82G A111C A120G C150U C169U U176A
Key: 0.0146

Exercise: Note reverse-splicing fitness for the variant shown: C82A A111C A120U A145C C150A C169U U176A
Key: 0.0036

Exercise: Let me know recorded reverse-splicing fitness for C82U A111G A120U A145G C150G U176A , thanks.
Key: 0.00494

Exercise: Identify the reported reverse-splicing fitness for the following entry. C82G A111G A120G A145G C150A C169U
Key: 0.0102

Exercise: Determine its reported reverse-splicing fitness: C82U A120C A145U C150G C169U U176C
Key: 0.0116

Exercise: In one line, give reported reverse-splicing fitness of the entry C82U A111G A120G A145U C169U U176C .
Key: 0.0133

Exercise: For the variant C82G A111U A120G A145C C150G C169G U176A , report reverse-splicing fitness.
Key: 0.00853

Exercise: For the variant C82A A111U A120G A145C C150A U176G , give its measured reverse-splicing fitness value.
Key: 0.00549

Exercise: Quote reverse-splicing fitness reported for A111C A120C A145G C150U C169A please.
Key: 0.0131

Exercise: Read off the recorded reverse-splicing fitness for C82A A111G A120C A145U C150G C169U U176G
Key: 0.00564

Exercise: Could you please provide reported reverse-splicing fitness for C82G A111C A120U A145G C150G C169G U176A ? Thanks!
Key: 0.00983

Exercise: Check the records and state reverse-splicing fitness for A111G A145U C150G U176G
Key: 0.0305

Exercise: Please report the measured reverse-splicing fitness for C82A A111U A120G C169A
Key: 0.0102

Exercise: Find the measured reverse-splicing fitness of A120G A145U C150A C169G and report it.
Key: 0.0841

Exercise: Report reverse-splicing fitness for C82G A111G A120U C169A U176C
Key: 0.00309

Exercise: Report reverse-splicing fitness, nothing else, for this variant: C82U A111G A120G A145U C150A C169G
Key: 0.00754

Exercise: Please report reverse-splicing fitness for the following variant: C82G A111C A145G C150U C169U U176C
Key: 0.0127

Exercise: Using the record for C82U A111C A120U A145G C150U C169A , state its measured reverse-splicing fitness.
Key: 0.00649

Exercise: Provide only the value of recorded reverse-splicing fitness for C82G A111U C150A C169G U176G
Key: 0.0075

Exercise: Item C82U A111C A120C C150A C169U : provide reverse-splicing fitness
Key: 0.0128

Exercise: Indicate the recorded reverse-splicing fitness value for this variant: C82U A111U A120U A145C C150G C169G
Key: 0.00307

Exercise: Complete the entry with reverse-splicing fitness for C82U A111G A145G C150U C169A U176A
Key: 0.0161

Exercise: Using the record for C82G A111C A145U C150A C169U U176A , state its measured reverse-splicing fitness.
Key: 0.0139

Exercise: Please supply the value of reported reverse-splicing fitness for the item C82A A111C A120G A145U C150G C169A U176C
Key: 0.00969

Exercise: Retrieve reverse-splicing fitness measured for C82G A120C A145G C150U C169U U176C and print it.
Key: 0.0155

Exercise: State its reverse-splicing fitness: C82A A111U A120C C150U C169A U176G
Key: 0.00841

Exercise: Answer with reported reverse-splicing fitness of C82A A111C A120C C150U C169A U176A
Key: 0.0146

Exercise: # return recorded reverse-splicing fitness for entry C82G A111C A120C U176A
Key: 0.018

Exercise: Quick one: give measured reverse-splicing fitness for C82U A111C A120C A145C C150U U176A
Key: 0.00836

Exercise: Return reported reverse-splicing fitness. Input variant: A111C A120G A145C C150A C169U U176C
Key: 0.00924

Exercise: Identify measured reverse-splicing fitness associated with C82A A111U A120G A145C C150G C169G U176A
Key: 0.00863

Exercise: Read the entry A111U A120G A145C C150U C169A and write its reported reverse-splicing fitness.
Key: 0.0284

Exercise: Please list reverse-splicing fitness recorded for the variant C82A A120C A145C C150U C169G U176A
Key: 0.0287

Exercise: Specify reported reverse-splicing fitness for the variant shown: C82U A111C A120U A145G C150A C169G U176C
Key: 0.00549

Exercise: Retrieve reverse-splicing fitness measured for C82A C150U and print it.
Key: 0.367

Exercise: Report reverse-splicing fitness, nothing else, for this variant: C82G A145U C150A C169A U176C
Key: 0.0106

Exercise: Fill in reverse-splicing fitness for record A145C C150U C169A U176A
Key: 0.0158

Exercise: For C82G A111G A120G C150A C169A U176G , write its reverse-splicing fitness.
Key: 0.00698

Exercise: State its reverse-splicing fitness: C82A A120G A145C C150G C169G U176C
Key: 0.00676

Exercise: In one line, give reported reverse-splicing fitness of the entry C82G A145G C150A C169U U176C .
Key: 0.0141

Exercise: Report reverse-splicing fitness for C82G A120C A145C C150G C169A
Key: 0.00926

Exercise: Return reverse-splicing fitness for the following variant: C82G A120C A145G C169A U176G
Key: 0.00477

Exercise: Note down reverse-splicing fitness recorded for C82U A111G A120C A145C C150U C169G U176A
Key: 0.0173

Exercise: Give reverse-splicing fitness for C82G A111U A120C A145C C169A U176A
Key: 0.0193

Exercise: Write down reverse-splicing fitness measured for item A111G A120U A145U C150G U176G
Key: 0.00462

Exercise: Input C82G A111G A120U A145G C150A C169U U176C , output reported reverse-splicing fitness.
Key: 0.00452

Exercise: Quote reverse-splicing fitness reported for C82G A145G C150A C169A U176C please.
Key: 0.0238

Exercise: Recall and state the measured reverse-splicing fitness for C82A A120G A145G C150G U176A .
Key: 0.00745

Exercise: Report reverse-splicing fitness, nothing else, for this variant: C82G A120U A145G C169U
Key: 0.00713

Exercise: Look up and report measured reverse-splicing fitness for this entry: C82G A111U A120C A145U C150U C169U U176A
Key: 0.0134

Exercise: Report reverse-splicing fitness for C82A A145G C169A U176A
Key: 0.0185

Exercise: Specify measured reverse-splicing fitness for A111G A120U A145G C150U .
Key: 0.611

Exercise: Note reverse-splicing fitness for the variant shown: C82U A145G C150U C169A U176A
Key: 0.0158

Exercise: Dear colleague, please send me the reported reverse-splicing fitness for A111C A120G A145U C169A U176C when you can.
Key: 0.0182

Exercise: Hello, please tell me recorded reverse-splicing fitness for this one: C82A A111G A120U A145U C150G C169A U176C
Key: 0.00338

Exercise: Please list reverse-splicing fitness recorded for the variant C82A A120C A145G C150U C169U U176G
Key: 0.00621

Exercise: Return value of reverse-splicing fitness for input C82U A111U A120G A145U C150U C169G U176G , no commentary.
Key: 0.00463

Exercise: Complete the entry with reverse-splicing fitness for C82U A111U A120G A145C C150U C169A
Key: 0.00726

Exercise: Kindly indicate its recorded reverse-splicing fitness. Item: C82G A111C A120C C169G
Key: 0.00886

Exercise: Give reverse-splicing fitness for the following variant: C82A A111C A120G A145U C150U C169G U176G
Key: 0.00522

Exercise: Retrieve reverse-splicing fitness measured for C82A A111U A120U A145G C150A C169A and print it.
Key: 0.00807

Exercise: For the variant C82G A111C A120U A145C C169G , give its reported reverse-splicing fitness.
Key: 0.00323

Exercise: Note down reverse-splicing fitness recorded for C82U A111C A120G A145C C150A
Key: 0.00617

Exercise: Give recorded reverse-splicing fitness. C82A A120C A145G C150G U176C
Key: 0.0148

Exercise: Return the recorded reverse-splicing fitness value; entry: C82U A145U U176C
Key: 0.477
